Origin of values: patent US9938262B2

Measured EC50 values are reported for all entries that follow.
# target desc: FSHR (Homo sapiens, UniProt P23945)
# Construct: expressed in transfected cells; host or cells: CHO (Cho-FSHR-LUC-1-1-43)
# Sequence (P23945 18-695): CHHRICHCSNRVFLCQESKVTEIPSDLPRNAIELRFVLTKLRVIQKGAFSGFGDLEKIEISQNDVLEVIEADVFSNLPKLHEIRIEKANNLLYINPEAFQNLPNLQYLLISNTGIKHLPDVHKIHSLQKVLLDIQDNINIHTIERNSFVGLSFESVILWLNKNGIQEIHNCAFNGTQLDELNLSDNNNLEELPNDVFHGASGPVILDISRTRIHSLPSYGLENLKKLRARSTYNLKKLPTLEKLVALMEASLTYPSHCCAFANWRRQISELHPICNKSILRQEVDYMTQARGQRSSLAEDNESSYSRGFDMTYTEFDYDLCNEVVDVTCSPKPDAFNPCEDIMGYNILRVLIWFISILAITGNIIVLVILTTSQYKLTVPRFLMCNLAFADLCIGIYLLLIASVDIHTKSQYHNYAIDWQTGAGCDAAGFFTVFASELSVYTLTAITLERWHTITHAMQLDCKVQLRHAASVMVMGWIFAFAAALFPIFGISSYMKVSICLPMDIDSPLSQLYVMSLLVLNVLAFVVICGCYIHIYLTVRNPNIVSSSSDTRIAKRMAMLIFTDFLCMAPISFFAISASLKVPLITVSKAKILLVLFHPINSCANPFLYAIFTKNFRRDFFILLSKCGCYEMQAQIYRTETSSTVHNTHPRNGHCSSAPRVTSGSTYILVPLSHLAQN
# Sequence (P01215 25-116 partner): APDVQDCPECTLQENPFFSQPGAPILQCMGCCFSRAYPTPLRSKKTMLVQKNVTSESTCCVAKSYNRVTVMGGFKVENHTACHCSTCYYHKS
# Sequence (P01225 19-129 partner): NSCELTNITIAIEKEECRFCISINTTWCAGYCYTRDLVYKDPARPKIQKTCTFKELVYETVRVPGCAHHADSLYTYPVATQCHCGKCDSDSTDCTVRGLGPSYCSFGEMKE
# assay details: EC50 of cyclic AMP production in CHO FSHR cells + EC20 FSH (Assay A)
# Format: cell-based
# condition label: CHO FSHR cells + EC20 FSH; Table 2; read-out: Assay A EC50 of cyclic AMP production
# Procedure: Example 10: EC50 of Cyclic AMP Production in CHO FSHR Cells+EC20 FSH (Assay A) 2500 Cho-FSHR-LUC-1-1-43 cells were plated per well in 5 μl of phenol red free DMEM/F12+1% FBS. Cells were plated in 384 well, solid white low volume plates (Greiner 784075) by Multidrop. […] The plates were read on Envision using the cAMP HTRF—low volume 384 well protocol. The readout was the calculated fluorescence ratio (665 nm/620 nm). […]

Solved cases below.
Cc1ccccc1N1CCN(c2ccc(C(=O)NCCCN3CCCC3=O)cc2NC(=O)c2ccc(C3CC3)o2)CC1 : 100 to 1000 nM
Cc1ccccc1N1CCN(c2ccc(C(=O)NCCNC3CS(=O)(=O)CC3O)cc2NC(=O)c2ccco2)CC1 (stereo not shown) : 100 to 1000 nM
Cc1ccccc1N1CCN(c2ccc(C(=O)N[C@H]3CCC[C@@H](O)C3)cc2NC(=O)c2coc(C3CC3)n2)CC1 : < 100 nM

Give the measured EC50 of Cc1ccccc1N1CCN(c2ccc(C(=O)NCCS(=O)(=O)N3CCCC3)cc2NC(=O)c2coc(C3CC3)n2)CC1 .
1000 to 10000 nM

Which EC50 value belongs to Cc1ccccc1N1CCN(c2ccc(C(=O)NCCCN3C(=O)[C@@H]4C=C[C@H]3C4)cc2NC(=O)c2coc(C3CC3)n2)CC1 ?
100 to 1000 nM

What does the record list as EC50 for Cc1ccc(C(=O)Nc2cc(C(=O)NCCCN3CCCC3=O)ccc2N2CCN(c3ccncc3C)CC2)o1 ?
> 10000 nM

Requested field: EC50. Item: Cc1ccccc1N1CCN(c2ccc(C(=O)NCCN3C(=O)CCC3=O)cc2NC(=O)c2coc(C3CC3)n2)CC1
> 10000 nM
